The entries below come with measured log10 IC50 values attached.
Biological target: EGFR Exon19Del (Homo sapiens, UniProt P00533, DEL746-750)
Construct: purchased Carna Bio
Sequence (P00533 with tags, fused parts or gaps DEL746-750 limits assumed): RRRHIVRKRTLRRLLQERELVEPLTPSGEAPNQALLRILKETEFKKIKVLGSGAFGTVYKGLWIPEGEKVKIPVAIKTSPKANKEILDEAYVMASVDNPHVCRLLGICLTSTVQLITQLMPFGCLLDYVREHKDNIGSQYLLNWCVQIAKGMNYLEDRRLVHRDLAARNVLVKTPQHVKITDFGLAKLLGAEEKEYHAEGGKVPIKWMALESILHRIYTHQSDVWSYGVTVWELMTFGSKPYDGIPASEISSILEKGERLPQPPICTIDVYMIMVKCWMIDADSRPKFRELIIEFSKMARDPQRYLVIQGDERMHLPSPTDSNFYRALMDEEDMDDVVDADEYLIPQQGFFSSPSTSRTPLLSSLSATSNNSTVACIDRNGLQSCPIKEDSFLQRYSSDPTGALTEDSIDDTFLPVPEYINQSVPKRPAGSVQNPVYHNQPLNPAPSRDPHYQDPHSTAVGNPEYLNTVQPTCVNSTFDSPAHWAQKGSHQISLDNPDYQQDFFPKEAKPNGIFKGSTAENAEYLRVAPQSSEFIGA
Test: Inhibition of EGFR Exon19Del biochemical enzymatic activity (HTRF)
Conditions: EGFR Del19, 1 mM ATP, 1 h, room temperature, read-out: IC50 @Del19
measurement_label: log10 IC50 (log10 of the value in nM)

compound	log10 IC50
CN(C)C1CN(c2ccc3nc4n(c3c2)C23CCC(CN(CCOc5c(cnn5C)-c5cc(cn(C)c5=O)C(=O)N4)C2)C3)CC1F (single isomer, unassigned) [Example A84B]	2.65
CN(C)CCCN(C)c1ccc2nc3n(c2c1)C12CCC(CC1)CN(CCOc1c(cnn1C)-c1cc(cn(C)c1=O)C(=O)N3)C2 [Example A125]	1.46
CN1CCC2(CC1)CN(c1ccc3nc4n(c3c1)C13CCC(CN(CCOc5c(cnn5C)-c5cc(cn(C)c5=O)C(=O)N4)C1)C3)C2 (single isomer, unassigned) [Example A77A]	2.66
C[C@@H]1CCCOc2c(cnn2C)-c2cc(cn(C)c2=O)C(=O)Nc2nc3ccc(N4CC5(CCN(C)CC5)C4)cc3n2C1 [Example A41]	0.36
C[C@@H]1CCCOc2c(cnn2C)-c2cc(cn(C)c2=O)C(=O)Nc2nc3ccc(N4CC5(CCN(C)C5)C4)cc3n2C1 [Example A42]	0.48
Cn1ncc2c1OCCN(C1COC1)CCn1c(nc3ccccc31)NC(=O)c1cc-2c(=O)n(C)c1 [Example A5]	2.93
C[C@@H]1CCCOc2c(cnn2C)-c2cc(cn(C)c2=O)C(=O)Nc2nc3ccc(N4CCC(N(C)C)C4)cc3n2C1 (stereo partly drawn) [Example A27]	0.79
CN1C2CC1CN(c1ccc3nc4n(c3c1)C13CCC(CN(CCOc5c(cnn5C)-c5cc(cn(C)c5=O)C(=O)N4)C1)C3)C2 (single isomer, unassigned) [Example A98A]	2.37
C[C@@H]1CCCOc2c(cnn2C)-c2cc(cn(C)c2=O)C(=O)Nc2nc3ccc(N4CCC(N5CCN(C)CC5)CC4)cc3n2C1 [Example A29]	0.58
COCCN(C)c1ccc2nc3n(c2c1)C12CCC(CN(CCOc4c(cnn4C)-c4cc(cn(C)c4=O)C(=O)N3)C1)C2 (single isomer, unassigned) [Example A90B]	0.80
Cn1ncc2c1OCCN1CC3CCC(C3)(C1)n1c(nc3ccccc31)NC(=O)c1cc-2c(=O)n(C)c1 (stereo not drawn) [Example A61B]	0.79
CN1CC2CN(c3ccc4nc5n(c4c3)C34CCC(CC3)CN(CCOc3c(cnn3C)-c3cc(cn(C)c3=O)C(=O)N5)C4)CC2C1 (stereo not drawn) [Example A126]	1.11

* * *

The entries below come with measured IC50 values attached.
Molecular target: EGFR Exon19Del/T790M (Homo sapiens, UniProt P00533, DEL746-750/T790M)
Construct: purchased Carna Bio
Sequence (P00533 with tags, fused parts or gaps DEL746-750/T790M limits assumed): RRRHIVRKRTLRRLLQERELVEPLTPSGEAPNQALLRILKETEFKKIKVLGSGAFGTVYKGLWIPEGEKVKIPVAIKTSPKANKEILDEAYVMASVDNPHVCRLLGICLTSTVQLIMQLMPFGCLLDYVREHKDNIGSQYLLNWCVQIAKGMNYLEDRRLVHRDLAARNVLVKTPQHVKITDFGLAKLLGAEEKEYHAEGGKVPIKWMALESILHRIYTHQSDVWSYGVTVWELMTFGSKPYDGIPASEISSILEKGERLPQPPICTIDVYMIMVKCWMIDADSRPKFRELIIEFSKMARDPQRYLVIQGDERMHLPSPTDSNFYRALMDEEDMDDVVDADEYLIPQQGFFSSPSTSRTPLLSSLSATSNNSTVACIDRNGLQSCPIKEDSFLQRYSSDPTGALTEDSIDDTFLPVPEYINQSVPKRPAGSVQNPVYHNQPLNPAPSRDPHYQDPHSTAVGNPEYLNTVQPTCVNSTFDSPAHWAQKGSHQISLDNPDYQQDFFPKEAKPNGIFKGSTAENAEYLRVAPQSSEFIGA
Assay: Inhibition of EGFR Exon19Del/T790M biochemical enzymatic activity (HTRF)
Details: EGFR Exon19Del/T790M, 1 mM ATP, 1 h at room temperature, read-out: IC50 @Del19-T790M

molecule	reported_relation	IC50 (nM)
Cc1cc2cc(n1)-c1cnn(C)c1OCCN1CC3CCC(C3)(C1)n1c(nc3ccc(N4CCC(N5CCOCC5)C4)cc31)NC2=O (single isomer, unassigned) [Example B44A1]	>	5000
Cc1cc2cc(n1)-c1cnn(C)c1OCCN1CC3CCC(CC3)(C1)n1c(nc3ccc(N4CCC5(CCN(C)CC5)C4)cc31)NC2=O [Example B31]	=	11
Cc1cc2cc(n1)-c1cnn(C)c1OCCN1CC3CCC(C3)(C1)n1c(nc3ccc(N(C)CCN(C)C)cc31)NC2=O (single isomer, unassigned) [Example B47B]	=	2.8
Cc1cc2cc(n1)-c1cnn(C)c1OCCN1CC3CCC(C3)(C1)n1c(nc3ccc(N4CCN(C5COC5)CC4)cc31)NC2=O (single isomer, unassigned) [Example B58B]	=	5.5
Cc1cc2cc(n1)-c1cnn(C)c1OCCN1CC3CCC(C3)(C1)n1c(nc3ccc(N4CCC5(CCN(C)CC5)C4)cc31)NC2=O (single isomer, unassigned) [Example B51B]	=	5.6
